System: Balamuthia mandrillaris (ATCC PRA-291) trophozoites, axenic culture
Experiment: primary screen, b score
Settings: 20 µM
In all, about 2,000 compounds were measured (“B-score”: median about -0.0024, highest 2% from about 4 on). Shown is part of a subset that was picked to be rich in the highest values.
For each of the molecules below, state its B-score.
Give only the figure.

Exam item: Requested field: B-score. Item: Nc1nc(N)nc(-c2cc(Cl)ccc2Cl)n1
Marked response: -4.01

Exam item: One more molecule: COc1ccc(C(=O)Nc2ccccc2CCC2CCCCN2C)cc1 (centres unmarked)
Marked response: 1.2

Exam item: Okay, and CC(C)(C)c1ccc(C(O)CCCN2CCC(C(O)(c3ccccc3)c3ccccc3)CC2)cc1 (centres unmarked) ?
Marked response: -2.26

Exam item: And then Nc1nc(Cl)nc2c1ncn2C1O[C@H](CO)[C@@H](O)[C@@H]1F (some centres unmarked) , what is it?
Marked response: 3.21

Exam item: Quick one: CC(=O)OCC(CCn1cnc2cnc(N)nc21)COC(C)=O
Marked response: 0.28

Exam item: Another: CC(=O)c1ccc2c(c1)N(CCCN(C)C)c1ccccc1S2
Marked response: 0.888

Exam item: Try this molecule next: CO/N=C(\C(=O)N[C@@H]1C(=O)N2C(C(=O)O)=C(COC(C)=O)CS[C@H]12)c1csc(N)n1
Marked response: 2.94

Exam item: Likewise for O=C1CCCC(=O)C1C(=O)c1ccc(C(F)(F)F)cc1[N+](=O)[O-] ?
Marked response: 4.46

Exam item: Let us now turn to Cc1c(O)c(=O)ccn1C
Marked response: -3.39

Exam item: Same again, this time with C[N+](C)(C)CCOP(=O)([O-])OP(=O)(O)OC[C@H]1O[C@@H](n2ccc(N)nc2=O)[C@H](O)[C@@H]1O
Marked response: -1.73

Exam item: Continue with Cc1cn[nH]c1
Marked response: 2.94
